Give measured Relative HLA MFI (100 uM) for each item. Keep answers brief.
- Tested on: HLA class-I alleles A*0101, A*0201, A*0301, A*2402, B*0702, B*0801, B*1402, B*1501, B*2705, B*3501, B*3901, B*4001, B*4402, B*5201, B*5701, B*5801, B*8101 …
- Format: cell-based, human
- testContext: HLA B*40 mono-allelic TAP-deficient 721.221 cells; peptide 100 uM; relative anti-HLA MFI
Numbers only.

Would you please look over these solved cases?
sequenceText: IPRRIRQGL [IL9]
measValue: 0.8038

sequenceText: KETINEEAA [KA9]
measValue: 0.09082

sequenceText: IEIKDTKEAL [IL10]
measValue: 0.9466

// next entry
Exercise: # get_value(readout='Relative HLA MFI (100 uM)', item= IEAEVIPAET [IT10] )
Solution: 0.5363

====

- System: HLA class-I alleles A*0101, A*0201, A*0301, A*2402, B*0702, B*0801, B*1402, B*1501, B*2705, B*3501, B*3901, B*4001, B*4402, B*5201, B*5701, B*5801, B*8101 …
- Type: cell-based, human
- testContext: HLA A*02 mono-allelic TAP-deficient 721.221 cells; peptide 100 uM; relative anti-HLA MFI
Give measured Relative HLA MFI (100 uM) for each item. Keep answers brief.

Would you please look over these solved cases?
sequenceText: GAFDLSFFL [GL9]
Relative HLA MFI (100 uM): 0.6097
--
sequenceText: RILQQLLFI [RI9]
Relative HLA MFI (100 uM): 0.4852

// next entry
Exercise: # get_value(readout='Relative HLA MFI (100 uM)', item= SLLNATAIAV [SAV10] )
Solution: 0.6044

====

- systemUnderTest: HLA-B*5701 (Homo sapiens, UniProt P01889, D201E/D98Y/E176V/E187L/E204Q/E69M/E70A/G107R/I90N/K202T/L105A/L119I/N104I/N87E/Q89R/Q94S/R106L/R155S/R180L/R86G/S101N/S121V/S35A/S48A/T118I/V36M/Y140S/Y91M)
- assayComment: Cell-based HLA class I-peptide concentration-based stability assay (TAP-deficient mono-allelic 721.221 cells)
- testContext: section B*57; peptide 10 uM; TAP-deficient mono-allelic 721.221 cells; relative anti-HLA MFI
Note to self: values exactly at 0.003 are y. So Relative HLA MFI (10 uM) at or above 0.003 is y, below is n.

sequenceText: KAFSPEVIPMF [KF11]
labelClass: y
--
sequenceText: LTFGWCFKL [LL9]
labelClass: n
--
sequenceText: FSPEVIPMF [FF9]
labelClass: y
--
sequenceText: KAIGTVLV [KV8]
labelClass: y
--
sequenceText: LGHGVSIEW [LW9]
labelClass: n

Exercise: Textbook exercise: given the entry HTQGYFPDWQ [HQ10] , state whether its Relative HLA MFI (10 uM) is greater than or equal to 0.003.
Solution: y

Exercise: Textbook exercise: given the entry ISKKAKGWF [IF9] , state whether its Relative HLA MFI (10 uM) is greater than or equal to 0.003.
Solution: y
